Assay: TIMS collision cross section in N2 (TIMS CCS N2); higher = larger gas-phase ion size
Conditions: ion species: [M-H]-; drift gas: N2 (99.4% N2, 0.6% O2); calibration: Stow et al. 2017 values for Agilent ESI-L Low Concentration Tune Mix; ionization: negative ESI
Measured Property: TIMS collision cross section in N2 (Å²)

* C[C@H]1[C@H](C)CC[C@]2(C(=O)O)CC[C@]3(C)C(=CC[C@@H]4[C@@]5(C)CC[C@H](O)C(C)(C)[C@@H]5CC[C@]43C)[C@H]12 | 218.03
* O=C1C[C@@H](c2ccc(O)cc2)Oc2cc(O)ccc21 | 159.28
* C[C@H]1[C@H](C)CC[C@]2(C(=O)O)CC[C@]3(C)C(=CC[C@@H]4[C@@]5(C)C[C@@H](O)[C@@H](O)[C@](C)(CO)[C@@H]5CC[C@]43C)[C@H]12 | 225.46
* O=c1cc(-c2ccc(O)cc2)oc2cc(OC3O[C@H](CO)[C@@H](O)[C@H](O)[C@H]3O)cc(O)c12 (stereo partly drawn) [Apigenin-7-O-glucoside (apigetrin)] | 206.74
* COc1ccc(CCC(=O)c2c(O)cc(O[C@@H]3O[C@H](CO)[C@@H](O)[C@H](O)[C@H]3O[C@@H]3O[C@@H](C)[C@H](O)[C@@H](O)[C@H]3O)cc2O)cc1O [neohesperidin dihydrochalcone] | 232.21
* COc1ccc2c(=O)cc(-c3ccc(O)cc3)oc2c1 [7-Methoxy-4'-hydroxyflavone] | 164.31
* CC1(C)CCC2(C(=O)OC3OC(CO)C(O)C(O)C3O)CCC3(C)C(=CCC4C5(C)CC(O)C(OC6OC(CO)C(O)C(O)C6O)C(C)(C(=O)O)C5CCC43C)C2C1 (stereo not drawn) | 300.86
* COc1ccc(-c2coc3cc(O)ccc3c2=O)cc1 | 163.76
* O=c1c(-c2ccc(O)c(O)c2)coc2cc(O)ccc12 [3',4',7-Trihydroxyisoflavone] | 161.78
* O=c1c(O)c(-c2ccc(O)cc2O)oc2ccc(O)cc12 [3,6,2',4'-Tetrahydroxyflavone] | 161.99
* COc1cc([C@@H]2CC(=O)c3c(O)cc(O)cc3O2)ccc1O | 168.62
* CC1(C)CC[C@]2(C(=O)O)CC[C@]3(C)C(=CC[C@@H]4[C@@]5(C)C[C@H](O)[C@H](O)[C@@](C)(C(=O)O)[C@@H]5CC[C@]43C)[C@@H]2C1 | 226.23
* COc1ccc(-c2cc(=O)c3c(O)cc(O)cc3o2)cc1 [5,7-Dihydroxy-4'-methoxyflavone] | 170.87
